Can you tell me IC50 for the items I'm about to list?
Test system: T47D
ASSAY_NAME: Cytotoxicity against human T47D cells after 96 hrs by MTT assay
Format: functional, cell-based
The response must be a number in µM with no trailing unit.

Recorded IC50 (molecule "N=C(N)c1ccc(-c2ccc(-c3ccc([N+](=O)[O-])cc3)o2)cc1" ): 3.8

Looking up "Oc1ccc(/C=C/c2cc(O)cc(O)c2)cc1" , I found its IC50 recorded as 59

Item: "CC(=O)O.COc1ccc(-c2ccc(-c3ccc(C(=N)N)cc3)o2)cc1" | IC50: 3

----------
Test system: Calf thymus DNA
STATED_CONDITIONS: Bos taurus
Description: Binding affinity to calf thymus DNA assessed as change in melting temperature by UV-visible spectrophometry
Kindly state ΔTm for each of the entries shown.
Express it in °C; write the number only.

ΔTm reported for this compound "Cn1c(-c2ccccc2)ccc1-c1ccc(C(=N)N)cc1" : 0.9

Memo: "COc1cccc2c1C(=O)c1c(O)c3c(c(O)c1C2=O)C[C@@](O)(C(=O)CO)C[C@@H]3O[C@H]1C[C@H](N)[C@H](O)[C@H](C)O1" , reported ΔTm: 20.5

Documented ΔTm of "N=C(N)c1ccc(-c2ccc(-c3cccc(F)c3)o2)cc1" : 3.2

Briefly, ΔTm measured for "N=C(N)c1ccc(-c2ccc(-c3ccc(Br)cc3)o2)cc1" : 4.4

The origin of these recorded values is ChEMBL document CHEMBL3769335.
